Measured pEC50, listed per entry for reference.
TARGET_ENTITY: T1, human A-beta(1-40) peptide, monomeric (BAM) (human, biotin at the C-terminus in capture ELISA, SPR and TR-FRET; not biotinylated where coated directly (Example 7))
T1 construct: synthetic peptide (Anaspec), TFA/HFIP treated to give monomer; also called monomeric A-beta
ASSAY_DETAILS: BAM ELISA
Scale: negative log10 of molar concentration, which is what pEC50 denotes.

BINDER	pEC50
ABII42G10 (VHH) VHH: EVQLVESGGGLVQAGGSLRLSCLFSGRTFSTNGVGWFRQVPGKEREFVSAINWSGSKTNYAEPVKGRFTISRDNAKNTAYLQMNSLKPEDTAVYYCAAYRTSISRYEYAYWGQGTQVTVSS	7.06

Consider the additional binder presented here.
Requested field: pEC50. Item: reference VHH 2D2 (VHH, from WO2006/40153, made and purified like the other VHHs) VHH: AVQLVDSGGGLVQAGGSLRLSCAVSGGTFSSIGMGWFRQAPGKEREFVGAISRSGDSTYYADSVKGRFTISRDGAKNTVYLQMNSLKDEDTAVYYCAGRPAGTAINIRRSYNYWGQGTQVTVSS 7.80
